B1: PDZK1 (parent)
chain: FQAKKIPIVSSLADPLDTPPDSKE

# Variants of: B1
# experimentSummary: protein stability index of a GFP-peptide fusion (GPS, HEK-293T) (PSI 1-6); higher = more stable;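 further: lentivirally expressed fusions sorted by FACS into six bins by GFP to DsRed ratio, PSI derived from sequencing read proportions per bin multiplied by bin number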
# measurementConditions: c terminus: a fixed tail appended
testReadout: protein stability index
One number for each entry.

Recorded results for 6 variants are shown here.
FQAKKIPIVSSLADPLDTAPDSKE [P19A] :: 3.43
FQAKKIPIVSSLAEPLDTPPDSKE [D14E] :: 3.65
FQAKKIPIVSSLADPLDTPQDSKE [P20Q] :: 3.73
FQAKKIPIVSSLADLLDTPPDSKE [P15L] :: 2.86
FQAKKIPIVSSLADPLDTPMDSKE [P20M] :: 3.75
FQAKKIPIVSSLADPLDTPHDSKE [P20H] :: 3.53

Fill in protein stability index for each of the 2 variants listed.
1. FQAKKIPIVSSLADVLDTPPDSKE [P15V]
2. FQAKKIPIVSSLADPKDTPPDSKE [L16K]

Response:
3.43
3.76
